molecular target: Human serum albumin (HSA) (Homo sapiens, UniProt P02768); construct: mature serum albumin, 585 residues, monomer; assay: ANS fluorescence titration, Scatchard plot
Sequence (P02768 25-609): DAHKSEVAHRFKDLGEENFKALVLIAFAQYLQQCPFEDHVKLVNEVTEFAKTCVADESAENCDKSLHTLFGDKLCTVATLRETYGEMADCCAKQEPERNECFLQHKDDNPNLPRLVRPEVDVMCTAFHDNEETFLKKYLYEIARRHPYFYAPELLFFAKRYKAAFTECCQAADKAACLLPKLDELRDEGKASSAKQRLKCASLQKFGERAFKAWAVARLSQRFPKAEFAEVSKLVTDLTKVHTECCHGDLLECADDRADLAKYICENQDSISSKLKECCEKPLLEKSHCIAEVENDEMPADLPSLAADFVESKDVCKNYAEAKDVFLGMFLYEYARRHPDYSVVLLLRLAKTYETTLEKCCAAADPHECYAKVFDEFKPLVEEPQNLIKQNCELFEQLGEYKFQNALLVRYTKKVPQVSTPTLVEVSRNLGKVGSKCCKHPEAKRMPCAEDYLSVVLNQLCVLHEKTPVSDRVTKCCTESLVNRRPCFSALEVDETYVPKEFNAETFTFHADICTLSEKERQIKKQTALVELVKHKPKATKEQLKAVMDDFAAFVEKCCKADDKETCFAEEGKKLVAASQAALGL
quantity_measured: pKd
Friendly reminder that pKd comes from taking -log10 of the concentration in mol/L.

Give its pKd value. Item: O=S(=O)(O)c1cccc2cccc(Nc3ccccc3)c12 [ANS]
6.05

Origin of measurements: paper PMC3844181
